- Test system: Salmonella Javiana
- protocol.details: MIC and MBC dose-response, serotype Javiana
- Format: cell-based, Salmonella enterica
- condition: MIC identical to MBC
The entries below are paired with their reported MIC/MBC.
Please state the figure in µM; there is no need to write the unit.

{"molecule": "CCOc1cc(/C=N/N=C(N)N)ccc1OCc1ccc(Cl)cc1", "endpoint.label": "MIC/MBC", "unit.of.measure": "µM", "reading": 50}

Data request: Entry `CCCCCCCCCCCCCCCCn1c[n+](C)c2ccccc21.[Br-]` has what MIC/MBC?
Data returned: 10

Data request: Another molecule to check: CC1CCC(C(C)C)C(OC(=O)Cn2c[n+](CC(=O)OC3CC(C)CCC3C(C)C)c3ccccc32)C1.[Cl-] (centres unmarked)
Data returned: 100

Data request: Next molecule: `CCCCCCCCCCCCCCCC[n+]1ccn(CC#N)c1.[Cl-]`
Data returned: 25

Data request: Also CN(CCO)CC(O)Cn1c2ccc(Br)cc2c2cc(Br)ccc21 (centres unmarked) ?
Data returned: 200

* * *

- Tested on: S. typhimurium WT internalized in Caco-2 cells
- protocol.details: S. typhimurium intracellular survival in infected Caco-2 cells
- Assay type: cell-based
- condition: S. Typhimurium-infected Caco-2 cells, 24 hrs treatment
endpoint.label: MBC (μm), Caco-2 cells (µM)
Report only the number, with the unit µM understood.

{"compound": "CCCCCCCCCCCCCCCC[n+]1ccn(CC#N)c1.[Cl-] [SM3]", "target.system": "S. typhimurium WT internalized in Caco-2 cells", "MBC (μm), Caco-2 cells / µM": 50}

Data request: Given CCOc1cc(/C=N/N=C(N)N)ccc1OCc1ccc(Cl)cc1 [SM5] , state its recorded MBC (μm), Caco-2 cells.
Data returned: 12.5

Data request: Again, but for CC1CCC(C(C)C)C(OC(=O)Cn2c[n+](CC(=O)OC3CC(C)CCC3C(C)C)c3ccccc32)C1.[Cl-] (stereo not shown) [SM1]
Data returned: 25

Data request: Further, for CCCCCCCCCCCCCCCCn1c[n+](C)c2ccccc21.[Br-] [SM4] ?
Data returned: 25

* * *

// values below are reported Chicken tissues positive for Salmonella: Livers
- Tested on: Kan^R S. typhimurium
- protocol.details: Salmonella clearance in one-week-old infected broiler chickens
- Type: in vivo
- condition: 100 μg orally twice daily for 5 days; n = 10
I'd appreciate it if you included the unit after the number.

{"molecule": "CC1CCC(C(C)C)C(OC(=O)Cn2c[n+](CC(=O)OC3CC(C)CCC3C(C)C)c3ccccc32)C1.[Cl-] (stereo not shown) [SM1]", "target.system": "Kan^R S. typhimurium", "reading": "40%"}
{"molecule": "CCCCCCCCCCCCCCCCn1c[n+](C)c2ccccc21.[Br-] [SM4]", "target.system": "Kan^R S. typhimurium", "reading": "30%"}
{"molecule": "CCCCCCCCCCCCCCCC[n+]1ccn(CC#N)c1.[Cl-] [SM3]", "target.system": "Kan^R S. typhimurium", "reading": "60%"}

Kindly consider the entry below.
Data request: Record request: Chicken tissues positive for Salmonella: Livers value, item CCOc1cc(/C=N/N=C(N)N)ccc1OCc1ccc(Cl)cc1 [SM5]
Data returned: 40%

* * *

- System: Salmonella Anatum
- protocol.details: MIC and MBC dose-response, serotype Anatum
- Assay type: cell-based, Salmonella enterica
- condition: MIC identical to MBC
hey, just use 1 (yes) if measured MIC/MBC is less than 20 µM, otherwise 0 (no)

These solved cases illustrate the format of a correct answer.
{"compound": "CCCCCCCCCCCCCCCCn1c[n+](C)c2ccccc21.[Br-]", "group.label": "1 (yes)"}
{"compound": "CCCCCCCCCCCCCCCC[n+]1ccn(CC#N)c1.[Cl-]", "group.label": "0 (no)"}
{"compound": "CN(CCO)CC(O)Cn1c2ccc(Br)cc2c2cc(Br)ccc21 (centres unmarked)", "group.label": "0 (no)"}
{"compound": "CCOc1cc(/C=N/N=C(N)N)ccc1OCc1ccc(Cl)cc1", "group.label": "0 (no)"}

Proceed to the following item.
Data request: Does this compound meet the criterion MIC/MBC < 20 µM? CC1CCC(C(C)C)C(OC(=O)Cn2c[n+](CC(=O)OC3CC(C)CCC3C(C)C)c3ccccc32)C1.[Cl-] (centres unmarked)
Data returned: 0 (no)

* * *

- Test system: Galleria mellonella larvae
- protocol.details: Toxicity on Galleria mellonella larva
- Type: in vivo
- condition: over 72 HPI, single treatment with 12.5 μg per larva

{"compound": "CCCCCCCCCCCCCCCC[n+]1ccn(CC#N)c1.[Cl-] [SM3]", "lethal effect in G. mellonella larvae": "killed only a few larvae"}
{"compound": "CCOc1cc(/C=N/N=C(N)N)ccc1OCc1ccc(Cl)cc1 [SM5]", "lethal effect in G. mellonella larvae": "killed only a few larvae"}
